test system: CAKI-1 renal; test: NCI-60 one-dose screen, 48 h (100 = growth as untreated, 0 = no growth, -100 = all killed); conditions: 10 µM unless noted
This is part of a sample that, as a whole, favours compounds with a hit. Of some 83,000 tested, about 20% had one in any assay.
Assign Criterion met whenever growth does not fall below 60%; assign Criterion not met whenever it does.

[ask] API: above_or_equal(metric=growth, cutoff=60%) for item Cn1ncc2c(C(=O)c3ccc(F)cc3)nc(C(C)(C)C)nc21
[reply] Criterion met

[ask] growth >= 60% for OCC(Nc1ncnc2ccc(-c3cnc4cnccn34)cc12)c1ccccc1 (stereo not drawn) ?
[reply] Criterion not met

[ask] Has Brc1cccc(-c2cc(-c3ccc4c(c3)OC=CO4)[nH]n2)c1 a recorded growth greater than or equal to 60%?
[reply] Criterion not met

[ask] Please tell me: is the compound CCc1cc(OC(=O)N2CCN(CCC(C)(COC(C)(C)C)COC(C)(C)C)CC2)ccc1Nc1cc(-c2ccc(-n3cccn3)cc2)[nH]n1 at or over 60% in terms of growth?
[reply] Criterion met

[ask] Please tell me: is the compound O=C(/C=C/c1ccccc1Cl)Nc1ncc(Cc2cc(Cl)ccc2Cl)s1 at or over 60% in terms of growth?
[reply] Criterion not met

[ask] In plain terms: is recorded growth at least 60% for COc1cc(C(=O)c2cc(C(C)=O)c3c(C)cccn23)cc(OC)c1OC ?
[reply] Criterion met

[ask] Item O=C1C(SCc2ccccc2)=C(Cl)CN1c1ccc(Cl)cc1 with growth of 60% or above?
[reply] Criterion met

[ask] Could you tell me if the measured growth of CCc1cc2c(cc1Cl)nc1c(=O)[nH]c(=O)nc-1n2CCOCC(C)(C)C reaches 60% or more?
[reply] Criterion met

[ask] Reported growth reaches at least 60% for Brc1ccc2[nH]cc(-c3nn4cc(-c5nccs5)nc4s3)c2c1 ?
[reply] Criterion not met

[ask] Confirm if growth reported for the compound C#C[C@]1(O)CC[C@H]2[C@@H]3CC=C4c5sc(N6CCN(C)CC6)nc5CC[C@]4(C)[C@H]3CC[C@@]21C is 60% or above.
[reply] Criterion not met

[ask] Say whether CCOC(=O)c1ccc(NC2=CC(=O)C(C)=C(C)C2=O)cc1 shows growth of 60% or more.
[reply] Criterion met

[ask] Does the compound O=C(CSc1nnc(-c2cccs2)n1-c1ccccc1)Nc1ccccc1F have recorded growth that is 60% or more?
[reply] Criterion not met

[ask] Quick check, growth >= 60%? CS(=O)(=O)c1nccc(-c2c(-c3cccc(OCc4ccc(Cl)c(C(F)(F)F)c4)c3)nc3sccn23)n1
[reply] Criterion met

[ask] Determine whether this compound has growth no lower than 60%: COc1cc(/C=N\NC(=O)c2ccc3nc(-c4ccc(Br)cc4)[nH]c3c2)cc(OC)c1OC
[reply] Criterion not met

[ask] Reported growth at or above 60%? O=C1Nc2cc(Cl)ccc2/C1=C\c1ccc(OCc2ccccc2)cc1
[reply] Criterion met

[ask] Does Cc1ccc2c(n1)C(=O)C(Cl)=C(Nc1ccc(C(C)C)cc1)C2=O have a reported growth of at least 60%?
[reply] Criterion met

[ask] Is reported growth greater than or equal to 60% here: CCOC(=O)c1c(N)c(C#N)cn1Cc1ccc(Cl)cc1Cl
[reply] Criterion met

[ask] Is the recorded value of growth equal to or greater than 60% for this compound? CCOC(=O)c1ccc(NC2=C(Cl)C(=O)c3nc(C)ccc3C2=O)cc1
[reply] Criterion met

[ask] Given CC(C)(C)c1cc(NC(=O)Nc2ccc(-c3cn4c5c(sc4n3)CCc3c[nH]cc3-5)cc2)no1 , state whether its growth is at least 60%.
[reply] Criterion not met

[ask] // inclusive: growth at least 60%? input: Nn1c(=O)n(-c2cccc(C(F)(F)F)c2)c(=O)c2cc(-c3ccc(F)cc3F)ccc21
[reply] Criterion not met

[ask] Hi team, for COc1cc2oc(-c3cccc(NC(=O)[C@@H](N)C(C)C)c3)cc(=O)c2c(OC)c1OC , is the recorded growth at or above 60%?
[reply] Criterion met

[ask] Given CN1CCN(c2ccc(C(=O)/C=C/c3cc(F)cc(C(F)(F)F)c3)cc2)CC1 , state whether its growth is at least 60%.
[reply] Criterion not met

[ask] Exam item: decide whether the reported growth for Oc1[nH]c2ccc(Cl)cc2c1N=Nc1nc(N=Nc2c(O)[nH]c3ccc(Cl)cc23)nc(N2CCCCC2)n1 is at least 60%.
[reply] Criterion met

[ask] Confirm if growth reported for the compound O=[N+]([O-])c1ccc(NC(=S)NNC(=S)Nc2ccc(Br)cc2)cc1 is 60% or above.
[reply] Criterion met

[ask] Identify whether the reported growth of the following compound is 60% or greater: C#C[C@]1(O)CC[C@H]2[C@@H]3CC=C4c5sc(Nc6cc(Cl)ccc6OC)nc5CC[C@]4(C)[C@H]3CC[C@@]21C
[reply] Criterion not met

[ask] Test whether the compound Cc1cc2nc3c4cc(C#N)ccc4n(CCN(C)C)c3nc2cc1C records growth of 60% or higher.
[reply] Criterion not met

[ask] Check if growth >= 60% (inclusive). Item: O=C(CSc1nc2ccccc2c(=O)n1-c1ccc(Cl)c(Cl)c1)Nc1ccc(S(=O)(=O)Nc2ccc(Cl)nn2)cc1
[reply] Criterion met

[ask] Does the compound CCOC(=O)C1=C(C)NC(C)=C(C(=O)OCc2ccccc2)C1c1cccc(C#N)c1 (stereo not drawn) have recorded growth that is 60% or more?
[reply] Criterion not met

[ask] Is growth for Cn1cc(C2=C(c3coc4cc(Br)ccc34)C(=O)NC2=O)c2ccccc21 at or above 60%?
[reply] Criterion not met

[ask] Can O=c1nc(Nc2ccc([N+](=O)[O-])cc2O)sc2ccccc12 be said to have growth at or above 60%?
[reply] Criterion not met

[ask] Can O=C(/C=C/c1ccc(F)cc1)Nc1cccc2cccnc12 be said to have growth at or above 60%?
[reply] Criterion met

[ask] Does the compound COc1cccc2c1[C@H](OC)[C@]13O[C@@]1(C2=O)[C@H](O)[C@H](C)[C@@](O)(C(=O)[C@@H]1O[C@H]1C)[C@@H]3O have recorded growth that is 60% or more?
[reply] Criterion not met

[ask] Has CCC(=C(c1ccc(OCCN2CCCCCC2)cc1)c1ccc(OCCN2CCCCCC2)cc1)c1ccc(Cl)cc1 a recorded growth greater than or equal to 60%?
[reply] Criterion not met

[ask] Does COC(=O)c1cccc(NC2=C(Cl)C(=O)c3nc(C)ccc3C2=O)c1 have a reported growth of at least 60%?
[reply] Criterion met

[ask] Please check the record Cn1c2nc3ccccc3c-2cc2ccccc21 and state if its growth is at or above 60%.
[reply] Criterion not met

[ask] Exam item: decide whether the reported growth for CC[C@]12CC(C(=O)OC)=C3Nc4ccccc4[C@@]34CCN(C14)[C@@H]1c3cc4c(cc3O[C@@H]1[C@H]2O)NC1=C(C(=O)OC)C[C@@]2(CC)C3N(CC[C@@]143)C[C@H]1O[C@H]12 (stereo partly drawn) is at least 60%.
[reply] Criterion not met

[ask] Textbook exercise: given the entry COc1cc2cc(Oc3ccc(NC(=O)Nc4ccc(F)c(C(F)(F)F)c4)cc3)c(C)nc2cc1OCCN(C)C , state whether its growth is greater than or equal to 60%.
[reply] Criterion met

[ask] Kindly determine if growth recorded for CCOC(=O)c1cnc2c(-c3ccc(Cl)c(Cl)c3)cnn2c1 is above or exactly 60%.
[reply] Criterion met

* * *

test system: LOX IMVI melanoma; test: NCI-60 one-dose screen, 48 h (100 = growth as untreated, 0 = no growth, -100 = all killed); conditions: 10 µM unless noted
This is part of a sample that, as a whole, favours compounds with a hit. Of some 83,000 tested, about 20% had one in any assay.
Please respond with reported growth for every item in the list.
Respond numerically; units are % and should not be typed.

Please fill in: growth reported for O=C(/C=C/C=C/c1csc(Br)n1)NO = -31.7

Briefly, growth measured for CN1CCN(c2ccc(Nc3nc(NCCCNS(=O)(=O)c4cccc5ccccc45)c4sccc4n3)cc2)CC1 : -85.2

# growth of CCNCCOc1ccc(/C(=C(/CC)c2ccc(Cl)cc2)c2ccc(OCCCN(C)C)cc2)cc1 = -89.2

Entry COc1ccc(-c2cc(-c3ccc(N4CCOCC4)cc3)n3c(n2)nc2ccccc23)cc1OC — recorded growth = 78.4

Form field growth, entry CNC(=O)c1cc(-c2ccc(NC(=S)Nc3cccc(C(F)(F)F)c3)cc2)nc2cccnc12 : 95.3

// growth lookup, molecule = COc1ccc(C2C(C#N)=C(/N=C/c3ccc(Cl)cc3)Oc3c2sc2c(C)cccc32)cc1 (stereo not given) , result: 41.6

get_value(item= O=S(=O)(NCCCNc1nccc(-c2[nH]c(-c3ccccc3)nc2-c2ccc(F)c(O)c2)n1)c1cccc(F)c1 , readout=growth) returns 70

// sample NS(=O)(=O)c1nnc(/N=C/c2c(O)[nH]c3ccccc23)s1 , its growth was 100

growth for CC(=C(c1ccc(OCCCN(C)C)cc1)c1ccc(OCCCN(C)C)cc1)c1ccc(Cl)cc1 is 76.6

Item: Cn1ncc2c(C(=O)c3ccc(F)cc3)nc(C(C)(C)C)nc21 | growth: 95.7

Sample CCCNNC(=O)c1ccc(-c2ccc(NC(=O)CCCCCCC(=O)N[C@H](C(=O)N3C[C@H](O)C[C@H]3C(=O)N[C@@H](C)c3ccc(-c4scnc4C)cc3)C(C)(C)C)cc2)cc1 ; growth observed: -41.8

# growth (molecule: CCCCSC1=C(Cl)CN(c2ccccc2)C1=O ) is 36.4

Record CC1CC(=O)C2=C(C1)Nc1ccc(Br)cc1CC2c1c[nH]c2ccc(Br)cc12 (stereo not given) , field growth: 34.9

growth reported for this molecule COc1cc(C(=O)c2cc(C(C)=O)c3ccc(C)cn23)cc(OC)c1OC : 34.5

Sure, the documented growth for COc1ccc(N2CCN(C3=C(Cl)C(=O)c4ncccc4C3=O)CC2)cc1 is 21

Measured growth of Clc1ccc2[nH]cc(-c3nn4cc(-c5ccncc5)nc4s3)c2c1 : 49.9

Reported growth of NCCNC(=O)c1cccc(COc2ccccc2NC(=O)c2cc(Br)c(Br)[nH]2)c1 : -30.8

Record Cc1nc(N)sc1-c1csc(Nc2ccc(C(F)(F)F)cc2)n1 . Reported growth: 6.07

// growth value for CN(C)c1ccc(-c2cc(-c3c[nH]c4ccccc34)nc(N)c2C#N)cc1 : 11.3

response.value for Cc1cc2nc(C(Cl)Cl)nc(-c3ccc(S(=O)(=O)N(C)C)cc3)n2n1 (field: growth) = 17.7
